Cited source: a melting point compilation (Tetko et al.; mined from patent text by program, amines drawn as free bases though some values may be those of a salt)

Examples of compounds with documented melting point follow.

The cases that follow already have their melting point on record.
• CCC(=O)C1=C(O)CC(c2cccc(O)c2)CC1=O (stereo not given) = 124 to 131 °C
• CN1CCC(n2ccc(-c3ccc(F)cc3)c2-c2ccncc2)CC1 = 187 to 189 °C

Request: So what's the measured melting point for this one? `CNc1nnc(-c2ccc3occ(-c4ccc(OC(F)(F)F)cc4)c3c2)o1`
Result: 184 to 185 °C

Request: Further, for `COc1ccc(Cn2nc(CO)c3ccccc32)cc1` ?
Result: 95 to 97 °C

Request: Could you do the same for `CN(C)C=C1C(=O)CCc2c1cnn2C` , please?
Result: 94 to 100 °C

Request: What do we get for COCN(C(=O)Cc1ccc(Cl)cc1)C(c1cncnc1C(F)(F)F)C(C)C (stereo not given) ?
Result: 142 to 145 °C

Request: Please do the same for `O=C(Nc1ccc(Oc2ccnc(NC3(CO)CCCC3)n2)c2ccccc12)c1cc(F)cc(N2CCOCC2)c1` as well.
Result: 115 to 117 °C
